MEASURED_QUANTITY: melting point

-- ask # return recorded melting point for entry CCOC(=O)CC(NC(=O)c1ccc(Cl)cc1)C(=O)C(C)C (centres undefined)
-- reply 42 to 44 °C

-- ask # return recorded melting point for entry COC(=O)c1ccccc1NC(=O)OC1CC2C(=O)NC3(C(=O)NS(=O)(=O)C4CC4)CC3C=CCOCCCC(NC(=O)OC(C)(C)C)C(=O)N2C1 (centres undefined)
-- reply 147 to 149 °C

***
-- ask # return recorded melting point for entry "O=C(NCNC(=O)c1ccccc1C(=O)c1ccccc1)Nc1cccc(C(=O)OCc2ccccc2)c1"
-- reply 157 to 159 °C

-- ask # return recorded melting point for entry "Cc1ccc(C(=O)c2noc(CC(N)=O)n2)cc1"
-- reply 169 to 171 °C

-- ask # return recorded melting point for entry "Cc1cc(-c2nc[nH]n2)ccc1N"
-- reply 183 to 186 °C

* * *

Some compounds, each annotated with its measured melting point.

Some entries whose results are on file:
-- ask # return recorded melting point for entry CCCC1=C(C#N)C(c2ccccc2Cl)c2c(n[nH]c2C(C)C)N1 (stereo unspecified)
-- reply > 270 °C

-- ask # return recorded melting point for entry "COC(=O)c1cc(C(=O)c2cccc(F)c2)ccc1OC"
-- reply 140 °C

Now for another entry.
-- ask # return recorded melting point for entry "Cc1cnc(Oc2cccc(C(F)(F)F)c2)c(C(=O)Nc2ccc(F)cc2F)c1"
-- reply 133 to 135 °C

* * *

Some molecules, each annotated with its measured melting point.

Some entries whose results are on file:
-- ask # return recorded melting point for entry "Fc1cccc(-c2ncc(-c3cnc(-c4ccccc4)nc3)[nH]2)c1"
-- reply 221 °C

-- ask # return recorded melting point for entry "Oc1ccc2c(c1)ncn2-c1ccc2cccc(Cl)c2n1"
-- reply > 250 °C

***
-- ask # return recorded melting point for entry "CCOC(=O)c1ccc(CCc2cnc3[nH]c(N)nc(N)c2-3)cc1"
-- reply 202 to 204 °C

-- ask # return recorded melting point for entry "CC(C)(C)OC(=O)N1C[C@@H]2[C@H](F)CCC(c3ccccc3)(c3ccccc3)[C@@H]2C1"
-- reply 200 °C

-- ask # return recorded melting point for entry "COc1ccc(-n2nc(Br)cc2-c2ccc(SC)cc2)cc1"
-- reply 144 to 145 °C

* * *

Some compounds, each annotated with its measured melting point.

Some entries whose results are on file:
-- ask # return recorded melting point for entry CC1Oc2cc(C3=NNC(=O)CC3)ccc2NC1=O (stereo unspecified)
-- reply 294 to 295 °C

-- ask # return recorded melting point for entry "CCOC(=O)C=Cc1cccc(C(=O)c2ccc(OC)cc2)c1"
-- reply 71 to 71.5 °C

***
-- ask # return recorded melting point for entry "COc1ccc2c(Cl)cc(-n3cccn3)nc2c1"
-- reply 80 °C

-- ask # return recorded melting point for entry "Oc1ccc(-c2cc3cc(O)ccc3o2)c(-c2ccccc2)c1"
-- reply 167 to 170 °C

-- ask # return recorded melting point for entry "COc1cc(C=O)ccc1OCc1coc(-c2ccco2)n1"
-- reply 138 to 139 °C

-- ask # return recorded melting point for entry "Ic1ccc(-c2nc3ccccc3n2-c2ccccc2)cc1"
-- reply 178 to 181 °C

-- ask # return recorded melting point for entry "Nc1cccc2c1ncc1nc3n(c12)CCCC3"
-- reply 275 to 278 °C

-- ask # return recorded melting point for entry "CC(C)(C)N(C=O)N=NNC=O"
-- reply 103 to 105 °C

-- ask # return recorded melting point for entry "CC(C)(Oc1cccc(C(=O)c2ccc(C(F)(F)F)cc2)c1)C(=O)O"
-- reply 133 °C

-- ask # return recorded melting point for entry CN1C(=O)C(C(=O)Nc2ccccn2)Sc2ccccc21 (stereo unspecified)
-- reply 141 to 143 °C

-- ask # return recorded melting point for entry "Cc1nc2cc(-c3ccnc(-c4cn(C)c(=O)n4-c4ccc(C(C)(C)C#N)cc4)c3)cnc2[nH]1"
-- reply 288 °C

-- ask # return recorded melting point for entry CCOC(=O)C(Cc1ccccc1)NC(=O)N(N(CCCl)S(C)(=O)=O)S(C)(=O)=O (stereo unspecified)
-- reply 106 to 107 °C

-- ask # return recorded melting point for entry "Oc1ccc(-c2c(Br)ccc3sc4ccccc4c23)cc1"
-- reply 185 to 186 °C

-- ask # return recorded melting point for entry O=C(O)C1c2cc(Br)ccc2COc2ccccc21 (stereo unspecified)
-- reply 187 to 189 °C

-- ask # return recorded melting point for entry "N#Cc1cnc2c(sc3ccc([N+](=O)[O-])cc32)c1Nc1ccc(Cl)cc1Cl"
-- reply 210 to 213 °C

-- ask # return recorded melting point for entry COC(=O)C1CC(C#N)(c2ccc(OC)c(OC)c2)CCC1=O (stereo unspecified)
-- reply 102 to 108 °C

-- ask # return recorded melting point for entry "Cc1nc(-c2ccccc2)nc(NCC(=O)N(C)c2ccccc2)c1Cl"
-- reply 154 to 155 °C

-- ask # return recorded melting point for entry "CC[C@@H](NC(=O)N1CC(=O)NC[C@@H](Cc2cc(Cl)ccc2OC)C1=O)c1cccc(C(=O)O)c1"
-- reply 121 to 123 °C

-- ask # return recorded melting point for entry O=C(NC1CCN(CC23CC(c4ccccc42)c2ccccc23)CC1)NC1CCCCO1 (stereo unspecified)
-- reply 211 to 212 °C

-- ask # return recorded melting point for entry O=C1c2ccc(SCc3ccccc3)cc2CC1Br (stereo unspecified)
-- reply 88 °C

-- ask # return recorded melting point for entry "FCc1ccc(-c2cn([C@H]3CN4CCC3CC4)nn2)cc1"
-- reply 138 °C

* * *

MEASURED_QUANTITY: melting point

Some entries whose results are on file:
-- ask # return recorded melting point for entry COc1ccc(N(C(=O)CN2C(=O)C(COCc3ccccc3)C(=O)N(c3ccccc3)c3ccccc32)C(C)C)cc1 (stereo not drawn)
-- reply 203 to 204 °C

-- ask # return recorded melting point for entry OC(c1ccccc1)c1cccnn1 (stereo not drawn)
-- reply 130 to 135 °C

Now for another entry.
-- ask # return recorded melting point for entry COc1ccc(S(=O)(=O)OCC(=O)CC(C)C2CCCCC2)cc1 (stereo not drawn)
-- reply 52 to 53 °C

* * *

Some compounds, each annotated with its measured melting point.

-- ask # return recorded melting point for entry "Cc1cccc(C(=O)Cc2ccccc2)c1C"
-- reply 52 to 53 °C

Now for another entry.
-- ask # return recorded melting point for entry "Cc1cccc(-n2c(CF)nc3ccc(N)cc3c2=O)c1C"
-- reply 189 to 192 °C

* * *

MEASURED_QUANTITY: melting point

-- ask # return recorded melting point for entry CC(COc1ccc2c(c1)C(=O)NC(C)(C)O2)NCc1ccccc1 (stereo not given)
-- reply 127 to 129 °C

***
-- ask # return recorded melting point for entry "Cc1nc(C=Cc2nc3ccc(F)cc3c(=O)n2-c2ccccc2Cl)cs1"
-- reply 231 to 232 °C

-- ask # return recorded melting point for entry "COc1ccc(C(=O)Nc2ccc(N3CCC(NC[C@H](O)COc4ccc(O)cc4)CC3)cc2)cc1OC"
-- reply 77 to 84 °C

-- ask # return recorded melting point for entry Cc1cccnc1-c1cncc(OC2SCC(O)C(O)C2O)c1 (stereo not given)
-- reply 162 to 175 °C

-- ask # return recorded melting point for entry "O=S1(=O)c2ccc(Cl)c3cccc(c23)N1CCCN1CCN(c2ccc(F)cc2)CC1"
-- reply 125 °C

-- ask # return recorded melting point for entry "C=C(Cc1ccc(Cl)cc1)C(=O)O"
-- reply 78 to 86 °C

-- ask # return recorded melting point for entry "CSc1nc(C)ccc1NC(=O)CCCCCCCCBr"
-- reply 80 to 82 °C

-- ask # return recorded melting point for entry "CCC(CC)c1nn(-c2ccc(C(F)(F)F)nn2)cc1CCCOc1c(C)cccc1CC(=O)O"
-- reply 76 to 77 °C

-- ask # return recorded melting point for entry "Cc1cc(=O)c(-c2ccc(Oc3ccc(C(F)(F)F)cc3)cc2)c(C)[nH]1"
-- reply 258 to 260 °C

-- ask # return recorded melting point for entry CC(=O)NC(Cl)CCC(=O)c1ccccc1 (stereo not given)
-- reply 157 to 163 °C

* * *

Some compounds, each annotated with its measured melting point.

-- ask # return recorded melting point for entry Cc1n[nH]c(C)c1-c1cncc(OC2SCC(O)C(O)C2O)c1 (stereo not given)
-- reply 227 °C

-- ask # return recorded melting point for entry "N#CCn1nnnc1S"
-- reply 116 to 118 °C

-- ask # return recorded melting point for entry "CC[C@@]12CC(=O)[C@](O)(c3ccccc3)C[C@H]1CCc1cc(O)ccc12"
-- reply 97 to 98 °C

-- ask # return recorded melting point for entry CC12CCC3C(CCC4CC(O)CCC43C)C1CCC2C#CBr (stereo not given)
-- reply 165 to 167 °C

-- ask # return recorded melting point for entry "O=C(c1c(Cl)cccc1Cl)n1cnc(-c2ccccc2)c1"
-- reply 135 to 136 °C

-- ask # return recorded melting point for entry C=C(C)CC1(OC=C(C)C)CC=C(C)C(NC=O)=C1C (stereo not given)
-- reply 109 °C

-- ask # return recorded melting point for entry OC(C(=Cn1cncn1)c1ccc(Cl)cc1)c1ccccc1C(F)(F)F (stereo not given)
-- reply 161 °C

-- ask # return recorded melting point for entry "O=C(Nc1cn2cc(-n3ccnc3)ccc2n1)c1ccc(-c2ccoc2)cc1"
-- reply 261 to 263 °C

-- ask # return recorded melting point for entry "COC(=O)c1ncn2c1CN(C)C(=O)c1cc(F)ccc1-2"
-- reply 195 to 196 °C

Now for another entry.
-- ask # return recorded melting point for entry "COC1=C(OC)C(=O)C2=C(CCC(CCn3c(=O)ccc4ccccc43)CC2)C1=O"
-- reply 88 to 90 °C
